target: SIRT1 (Homo sapiens); assay: Trp mass spectrometry assay of SIRT1 activation; assay type: biochemical; details: Trp mass spectrometry assay; EC1.5 = concentration of test compound that results in 150% activation of SIRT1
Structures can show the parent of a compound that is named as a salt.
ASSAY READOUT: Tryp AVG EC1.5 (μM)

Q: # query: Tryp AVG EC1.5 (μM) of entry NCc1ccc(NC(=O)N2c3nc(-c4cccc(C(F)(F)F)c4)ccc3N3CCC[C@H]2C3)cc1 [444 (4), hydrochloride]
Result: A (A (EC1.5<1 μM))

Q: Any idea what its Tryp AVG EC1.5 (μM) is? The compound is CC(C)(C)OC(=O)NCCn1cc(-c2cccc(NC(=O)N3c4nc(-c5cccc(C(F)(F)F)c5)ccc4N4CCC[C@H]3C4)c2)nn1
Result: A (A (EC1.5<1 μM))

Q: Which Tryp AVG EC1.5 (μM) reading was recorded for the compound O=C(Nc1ccccn1)N1c2nc(-c3cccc(C(F)(F)F)c3)ccc2N2C[C@@H](O)[C@H]1C2 ?
Result: A (A (EC1.5<1 μM))

Q: Please look up its Tryp AVG EC1.5 (μM): Cn1nccc1-c1ccc2c(n1)N(C(=O)Nc1cccnc1)[C@H]1CCN2C1
Result: B (B (EC1.5 1-25 μM))

Q: Request the reported Tryp AVG EC1.5 (μM) associated with Cc1cc(-c2ccc3c(n2)N(C(=O)Nc2cncc(C)n2)[C@H]2CCN3C2)ccn1
Result: A (A (EC1.5<1 μM))

Q: Form field: reported Tryp AVG EC1.5 (μM) of O=C(Nc1ccc2c(c1)CCC2)N1c2nc(-c3cccc(C(F)(F)F)c3)ccc2N2CC[C@H]1C2
Result: B (B (EC1.5 1-25 μM))

Further cases:
Q: Quick one: Tryp AVG EC1.5 (μM) for Cc1nc(C)c(-c2ccc3c(n2)N(C(=O)Nc2cccnc2)[C@H]2CCN3C2)s1 ?
Result: B (B (EC1.5 1-25 μM))

###

target: SIRT1 (Homo sapiens, UniProt Q96EB6); experiment: Trp mass spectrometry assay of SIRT1 activation; format: biochemical; conditions: Trp peptide assay; maximum activity relative to control (100%); read-out: TRP MAX RESP (percent maximum fold activation)
ASSAY READOUT: Emax

Consider the reported Emax for these compounds:
Q: I'd like to know its Emax. The compound in question is Cc1cc(-c2ccc3c(n2)N(C(=O)N2CCCCC2)[C@H]2CCN3C2)ccn1
Result: < 150%

Q: Request the reported Emax associated with Cc1cc(-c2ccc3c(n2)N(C(=O)NCc2cccnc2)[C@H]2CCN3C2)ccn1
Result: > 150%

Q: Which value of Emax has been reported for Cc1cc(-c2ccc3c(n2)N(C(=O)Nc2ccc4[nH]ncc4c2)[C@H]2CCN3C2)ccn1 in the records?
Result: > 150%

---
Q: // query Emax value for entry CCc1cnc(NC(=O)N2c3nc(-c4ccc(C)nc4)ccc3N3CC[C@H]2C3)cn1
Result: > 150%

Q: Consider the compound COc1cncc(NC(=O)N2c3nc(-c4ccnc(C)c4)ccc3N3CCC[C@H]2C3)n1 and give its measured Emax.
Result: > 150%

Q: Give its Emax value. Item: Cc1cc(-c2ccc3c(n2)N(C(=O)N2CCCC2)[C@H]2CCN3C2)ccn1
Result: < 150%

Q: Data request, read-out Emax, for Cc1cc(-c2ccc3c(n2)N(C(=O)Nc2ccnnc2)[C@H]2CCN3C2)ccn1
Result: > 150%

Q: Name the reported Emax value associated with the compound Cc1cc(-c2ccc3c(n2)N(C(=O)Nc2ccc4nn(C)cc4c2)[C@H]2CCCN3C2)ccn1
Result: > 150%

Q: Requested read-out: Emax. Entry: Cc1cc(NC(=O)N2c3nc(-c4ccnc(C)c4)ccc3N3CC[C@H]2C3)ccn1
Result: > 150%

###

# Emax per entry
target: SIRT1 (Homo sapiens); experiment: Trp mass spectrometry assay of SIRT1 activation; format: biochemical; details: Trp peptide assay; maximum activity relative to control (100%); read-out: TRP MAX RESP (percent maximum fold activation)

// solved cases for Emax follow
Q: Write down the reported Emax of CCOc1cncc(NC(=O)N2c3nc(-c4ccnc(C)c4)ccc3N3CC[C@H]2C3)n1 , test system: SIRT1 (Homo sapiens).
Result: > 150%

Q: // lookup Emax | system=SIRT1 (Homo sapiens) | key= CCc1ccc(-c2ccc3c(n2)N(C(=O)Nc2cnccn2)[C@H]2CCN3C2)cn1
Result: > 150%

Q: Which measured Emax belongs to Cc1cncc(-c2ccc3c(n2)N(C(=O)Nc2cnccn2)[C@H]2CCN3C2)c1 , tested on SIRT1 (Homo sapiens)?
Result: > 150%

Q: Recall the recorded Emax for Cc1cc(-c2ccc3c(n2)N(C(=O)NC2CCC2)[C@H]2CCN3C2)ccn1 with SIRT1 (Homo sapiens) and state it.
Result: > 150%

Others:
Q: Which measured Emax belongs to Cc1cc(C)c(-c2ccc3c(n2)N(C(=O)Nc2cccnc2)[C@H]2CCN3C2)cn1 , tested on SIRT1 (Homo sapiens)?
Result: > 150%

Q: Short answer please: Emax, SIRT1 (Homo sapiens), entry Cc1cc(-c2ccc3c(n2)N(C(=O)Nc2ncnc4[nH]nnc24)[C@H]2CCN3C2)ccn1
Result: < 150%

Q: API: value(readout=Emax, system=SIRT1 (Homo sapiens)) for record COC(=O)CNC(=O)c1ccc2c(n1)N(C(=O)Nc1ccccn1)[C@H]1CCN2C1
Result: > 150%

Q: Form entry - test system: SIRT1 (Homo sapiens); read-out: Emax; compound: Cc1cc(-c2ccc3c(n2)N(C(=O)Nc2cccc4nccnc24)[C@H]2CCN3C2)ccn1
Result: > 150%

Q: Notebook entry, SIRT1 (Homo sapiens) assay: Emax of Cc1cc(-c2ccc3c(n2)N(C(=O)Nc2cnccn2)[C@H]2CCN3C2)cc(C)n1 = ?
Result: > 150%

Q: Provide value of Emax for this record tested with SIRT1 (Homo sapiens): CCc1cncc(NC(=O)N2c3nc(-c4ccnc(C)c4)ccc3N3CC[C@H]2C3)n1
Result: > 150%

Q: Please state recorded Emax (tested on SIRT1 (Homo sapiens)) of Cc1cc(-c2ccc3c(n2)N(C(=O)NC2CCCC2)[C@H]2CCN3C2)ccn1
Result: > 150%

Q: Enter reported Emax observed with SIRT1 (Homo sapiens) for Cc1cc(-c2ccc3c(n2)N(C(=O)Nc2cnc(C4CC4)cn2)[C@H]2CCN3C2)ccn1
Result: > 150%

Q: Value wanted: Emax (SIRT1 (Homo sapiens)) of entry CC(C)c1cc(-c2ccc3c(n2)N(C(=O)Nc2cnccn2)[C@H]2CCN3C2)ccn1
Result: > 150%

Q: I'm curious: which Emax was measured for O=C(Nc1ccnc(OC[C@H](O)CO)c1)N1c2nc(-c3cccc(C(F)(F)F)c3)ccc2N2CC[C@H]1C2 tested on SIRT1 (Homo sapiens)?
Result: > 150%

Q: Lab note: need Emax with SIRT1 (Homo sapiens) for entry Cc1cc(-c2ccc3c(n2)N(C(=O)N2CCOCC2)[C@H]2CCN3C2)ccn1 , please look it up.
Result: < 150%

###

Molecular target: SIRT1 (Homo sapiens, UniProt Q96EB6)
Sequence (Q96EB6 1-747): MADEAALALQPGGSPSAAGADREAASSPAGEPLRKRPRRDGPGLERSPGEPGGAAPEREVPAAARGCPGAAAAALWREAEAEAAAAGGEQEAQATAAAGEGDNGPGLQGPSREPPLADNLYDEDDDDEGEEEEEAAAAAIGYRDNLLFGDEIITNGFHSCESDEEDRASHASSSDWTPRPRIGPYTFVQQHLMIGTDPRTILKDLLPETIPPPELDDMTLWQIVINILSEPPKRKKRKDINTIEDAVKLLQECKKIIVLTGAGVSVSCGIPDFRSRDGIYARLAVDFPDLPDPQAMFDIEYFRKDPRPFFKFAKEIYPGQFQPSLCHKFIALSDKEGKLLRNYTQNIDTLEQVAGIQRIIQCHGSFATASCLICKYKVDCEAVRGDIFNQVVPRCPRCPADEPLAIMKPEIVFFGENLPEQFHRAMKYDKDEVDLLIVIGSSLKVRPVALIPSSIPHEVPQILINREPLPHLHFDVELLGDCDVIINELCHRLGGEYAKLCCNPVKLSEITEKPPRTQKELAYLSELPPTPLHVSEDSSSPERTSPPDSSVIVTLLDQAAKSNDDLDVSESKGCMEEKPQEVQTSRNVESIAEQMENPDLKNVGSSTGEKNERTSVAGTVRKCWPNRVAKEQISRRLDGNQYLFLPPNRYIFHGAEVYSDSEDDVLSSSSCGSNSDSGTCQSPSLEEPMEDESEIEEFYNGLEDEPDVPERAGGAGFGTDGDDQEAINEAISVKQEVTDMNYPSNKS
Assay: Trp mass spectrometry assay of SIRT1 activation
Type: biochemical
Conditions: Trp peptide assay; EC1.5 = concentration that results in 150% activation of SIRT1
Structures can show the parent of a compound that is named as a salt.
ASSAY READOUT: TRP Activity (EC1.5)

Record excerpt, results attached:
Q: Tell me reported TRP Activity (EC1.5) for Cc1cc(-c2ccc3c(n2)N(C(=O)Nc2cnccn2)[C@H]2CCN3C2)cnc1C#N , tested with SIRT1 (Homo sapiens, UniProt Q96EB6).
Result: B (B (EC1.5 1-25 μM))

Q: Field: TRP Activity (EC1.5) (SIRT1 (Homo sapiens, UniProt Q96EB6)). Entry: O=C(Nc1cnccn1)N1c2nc(-c3ccc(C4CC4)nc3)ccc2N2CC[C@H]1C2
Result: B (B (EC1.5 1-25 μM))

Q: # value lookup — system SIRT1 (Homo sapiens, UniProt Q96EB6), readout TRP Activity (EC1.5), item CCOc1cnc(NC(=O)N2c3nc(-c4ccnc(C)c4)ccc3N3CC[C@H]2C3)cn1
Result: B (B (EC1.5 1-25 μM))

Q: Enter reported TRP Activity (EC1.5) observed with SIRT1 (Homo sapiens, UniProt Q96EB6) for Cc1ncc(-c2ccc3c(n2)N(C(=O)Nc2cccnc2)[C@H]2CCN3C2)cc1F
Result: B (B (EC1.5 1-25 μM))

Q: Hi! What's the reported TRP Activity (EC1.5) for Cc1cc(-c2ccc3c(n2)N(C(=O)NCCc2cccnc2)[C@H]2CCN3C2)ccn1 [hydrochloride] on SIRT1 (Homo sapiens, UniProt Q96EB6)?
Result: C (C (EC1.5>25 μM))

Continuing:
Q: Give SIRT1 (Homo sapiens, UniProt Q96EB6) TRP Activity (EC1.5) for O=C(O)c1cc(-c2ccc3c(n2)N(C(=O)Nc2cnccn2)[C@H]2CCN3C2)ccn1
Result: C (C (EC1.5>25 μM))

Q: Notebook: pull reported TRP Activity (EC1.5) for SIRT1 (Homo sapiens, UniProt Q96EB6), entry Cc1cc(-c2ccc3c(n2)N(C(=O)Nc2ccc4c(c2)OCCO4)[C@H]2CCN3C2)ccn1
Result: B (B (EC1.5 1-25 μM))

Q: What TRP Activity (EC1.5) appears in the records for this compound with SIRT1 (Homo sapiens, UniProt Q96EB6)? Cc1ccc(-c2ccc3c(n2)N(C(=O)NCC2CC2)[C@H]2CCN3C2)cn1
Result: B (B (EC1.5 1-25 μM))
